STUDY_TARGET: GST-tagged Tnks-2 (873-1166 aa) (Homo sapiens)
Construct: GST-tagged Tnks-2 (873-1166 aa, prepared in-house); made in house
MEASUREMENT_PROTOCOL: TNKS2 activity ELISA (autoparsylation)
Format: biochemical
Description: Description of the TNKS1 and TNKS2 ELISA Assay Biochemical Activity Testing of TNKS 1 and 2: Activity ELISA (Autoparsylation Assay) For analysis of autoparsylation activity of TNKS 1 and 2 an activity ELISA is performed: In the first step GST tagged TNKS is captured on a Glutathione coated plate. Then the activity assay with biotinylated NAD is performed in the absence/presence of the compounds. […] The amount of biotinylated resp. autoparsylated TNKS is detected with a luminescence substrate for HRP. […]
pIC50: −log10 of the molar value.
MEASURED_ATTRIBUTE: pIC50

Q: Record O=C(Cc1cccc([N+](=O)[O-])c1)Nc1nncc2ccccc12 [Compound A7] : what is its pIC50 with GST-tagged Tnks-2 (873-1166 aa) (Homo sapiens)?
A: 5.52 to 6.52

###

STUDY_TARGET: GST-tagged Tnks-2 (873-1166 aa) (Homo sapiens, UniProt Q9H2K2)
Construct: GST-tagged Tnks-2 (873-1166 aa, prepared in-house); made in house
Sequence (Q9H2K2 873-1166): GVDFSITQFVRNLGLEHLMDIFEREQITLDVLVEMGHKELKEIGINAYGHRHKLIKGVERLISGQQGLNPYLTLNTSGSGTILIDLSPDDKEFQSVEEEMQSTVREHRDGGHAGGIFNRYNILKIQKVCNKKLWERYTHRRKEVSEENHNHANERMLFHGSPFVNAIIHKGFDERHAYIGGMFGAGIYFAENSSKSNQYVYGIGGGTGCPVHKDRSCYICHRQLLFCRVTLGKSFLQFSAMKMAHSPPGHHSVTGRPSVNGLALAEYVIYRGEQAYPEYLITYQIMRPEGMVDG
MEASUREMENT_PROTOCOL: TNKS2 activity ELISA (autoparsylation)
Format: biochemical
MEASUREMENT_PARAMETERS: activity ELISA, 1 hour at 30° C; read-out: IC50 TNKS2 ELISA
Experimental: Description of the TNKS1 and TNKS2 ELISA Assay Biochemical Activity Testing of TNKS 1 and 2: Activity ELISA (Autoparsylation Assay) For analysis of autoparsylation activity of TNKS 1 and 2 an activity ELISA is performed: In the first step GST tagged TNKS is captured on a Glutathione coated plate. Then the activity assay with biotinylated NAD is performed in the absence/presence of the compounds. […] The amount of biotinylated resp. autoparsylated TNKS is detected with a luminescence substrate for HRP. […]
MEASURED_ATTRIBUTE: IC50

Here is how some compounds turned out for IC50.
Q: So what's the measured IC50 for this one? "Cc1cccc2cnnc(NC(=O)Cc3ccccc3)c12"
A: < 0.3 µM

Q: So what's the measured IC50 for this one? "O=C(CCc1ccccc1Cl)Nc1nncc2ccccc12"
A: < 0.3 µM

Q: So what's the measured IC50 for this one? O=C(CCc1ccccc1)Nc1nncc2ccccc12 [Compound A14, 3-phenyl-N-phthalazin-1-yl-propionamide]
A: < 0.3 µM

Q: So what's the measured IC50 for this one? "O=C(CCC1CCCC1)Nc1nncc2ccccc12"
A: < 0.3 µM

Q: So what's the measured IC50 for this one? "CCOc1ccc(CC(=O)Nc2nncc3ccccc23)cc1"
A: < 0.3 µM

Q: So what's the measured IC50 for this one? "COc1ccc(CC(=O)Nc2nncc3cccc(C)c23)cc1"
A: < 0.3 µM

Q: So what's the measured IC50 for this one? "O=C(Cc1cccc(OC(F)(F)F)c1)Nc1nncc2ccccc12"
A: 0.3 to 3 µM

Q: So what's the measured IC50 for this one? "N#Cc1cccc(CC(=O)Nc2nncc3ccccc23)c1"
A: 0.3 to 3 µM

Note: attention shifts to another entry.
Q: So what's the measured IC50 for this one? "O=C(CCc1cccc(Cl)c1Cl)Nc1nncc2ccccc12"
A: < 0.3 µM

Source: patent US9751842B2
